Hemolysis values for the compounds below.
# Organism: Mus musculus
# assay overview: Hemolytic ability to hemolyze ICR mouse RBCs in microtiter red blood cell hemolysis assay
# Type: functional
# Design: concentration or dose not given beside the values

{"columns": ["structure as smiles", "result"],
 "data": [
  ["CCCCCCCCCCCCC[C@@H]1CC(=O)N[C@H]([C@@H](C)O)C(=O)N[C@H](C)C(=O)N[C@@H](Cc2ccc(O)cc2)C(=O)N[C@@H](C(C)C)C(=O)N2C[C@H](O)C[C@H]2C(=O)N[C@H]([C@@H](C)O)C(=O)N[C@@H]([C@@H](C)O)C(=O)N2CC[C@H](O)[C@H]2C(=O)N[C@@H]([C@H](O)CC(N)=O)C(=O)NCC(=O)N[C@H]([C@@H](C)O)C(=O)N[C@@H](CCCNC(=O)CCCCN)C(=O)O1.Cl", "20%"],
  ["CCCCCCCCCCCCC[C@@H]1CC(=O)N[C@H]([C@@H](C)O)C(=O)N[C@H](C)C(=O)N[C@@H](Cc2ccc(O)cc2)C(=O)N[C@@H](C(C)C)C(=O)N2C[C@H](O)C[C@H]2C(=O)N[C@H]([C@@H](C)O)C(=O)N[C@@H]([C@@H](C)O)C(=O)N2CC[C@H](O)[C@H]2C(=O)N[C@@H]([C@H](O)CC(N)=O)C(=O)NCC(=O)N[C@H]([C@@H](C)O)C(=O)N[C@@H](CCCNC(C)=O)C(=O)O1", "5%"]
]}

Asked: Entry under review: `CCCCCCCCCCCCC[C@@H]1CC(=O)N[C@H]([C@@H](C)O)C(=O)N[C@H](C)C(=O)N[C@@H](Cc2ccc(O)cc2)C(=O)N[C@@H](C(C)C)C(=O)N2C[C@H](O)C[C@H]2C(=O)N[C@H]([C@@H](C)O)C(=O)N[C@@H]([C@@H](C)O)C(=O)N2CC[C@H](O)[C@H]2C(=O)N[C@@H]([C@H](O)CC(N)=O)C(=O)NCC(=O)N[C@H]([C@@H](C)O)C(=O)N[C@@H](CCCNC(=O)CN(C)C)C(=O)O1.Cl` . Reported Hemolysis?
Given back: 10%

Asked: Quick one: Hemolysis for `CCCCCCCCCCCCC[C@@H]1CC(=O)N[C@H]([C@@H](C)O)C(=O)N[C@H](C)C(=O)N[C@@H](Cc2ccc(O)cc2)C(=O)N[C@@H](C(C)C)C(=O)N2C[C@H](O)C[C@H]2C(=O)N[C@H]([C@@H](C)O)C(=O)N[C@@H]([C@@H](C)O)C(=O)N2CC[C@H](O)[C@H]2C(=O)N[C@@H]([C@H](O)CC(N)=O)C(=O)NCC(=O)N[C@H]([C@@H](C)O)C(=O)N[C@@H](CCCNC(=O)CCN)C(=O)O1.Cl` ?
Given back: 44%

Asked: Tell me the measured Hemolysis of `CCCCCCCCCCCCC[C@@H]1CC(=O)N[C@H]([C@@H](C)O)C(=O)N[C@H](C)C(=O)N[C@@H](Cc2ccc(O)cc2)C(=O)N[C@@H](C(C)C)C(=O)N2C[C@H](O)C[C@H]2C(=O)N[C@H]([C@@H](C)O)C(=O)N[C@@H]([C@@H](C)O)C(=O)N2CC[C@H](O)[C@H]2C(=O)N[C@@H]([C@H](O)CC(N)=O)C(=O)NCC(=O)N[C@H]([C@@H](C)O)C(=O)N[C@@H](CCCNC(=O)[C@@H]2CCN2)C(=O)O1.Cl` , please.
Given back: 27%
